# Test system: 885724-159-R-J1-PDC complex spheroid viability;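 also: spheroids exposed to agents for seven days before readout; percent of vehicle control viability where 100% = DMSO wells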
# Assay explanation: Anticancer human tumor 885724-159-R-J1-PDC patient-derived pancreatic adenocarcinoma cell line growth inhibition [GQUAD]
# Condition info: second compound 0.316 µM; first compound 10 µM; hits give low values
Metric: viability, T/C (%)

1. O=C(NO)c1cnc(N2CCN(S(=O)(=O)c3ccc4ccccc4c3)CC2)nc1 + CN(C)c1ccc(Nc2c3ccc(NC(=O)CCN4CCCC4)cc3nc3cc(NC(=O)CCN4CCCC4)ccc23)cc1	1.4
2. O=c1[nH]cc(F)c(=O)[nH]1 + Cc1[nH]c2ccc(F)cc2c1-c1nc2c3cccnc3c3ncccc3c2[nH]1	95.6
3. CC1COCCN1c1cc(-c2ccnn2C)c2ccnc(-c3ccn[nH]3)c2n1 (stereo unspecified) + Cc1[nH]c2ccc(F)cc2c1-c1nc2c3cccnc3c3ncccc3c2[nH]1	48
4. COc1cccc2c1C(=O)c1c(O)c3c(c(O)c1C2=O)CC(O)(C(=O)CO)CC3OC1CC(N)C(O)C(C)O1 (stereo unspecified) + Cc1cnc(CNC(=O)c2c(=O)c3ccc(N4CCCN(C)CC4)nc3n3c2sc2ccccc23)cn1	4.79
5. C=CC(=O)N1CCN(c2nc(=O)n(-c3c(C)ccnc3C(C)C)c3nc(-c4c(O)cccc4F)c(F)cc23)C(C)C1 (stereo unspecified) + Cc1[nH]c2ccc(F)cc2c1-c1nc2c3cccnc3c3ncccc3c2[nH]1	88.6
6. Cc1cccc(N(C)C(=O)C2C(O)CCN2c2nc(C)cc(C(F)(F)F)c2C#N)c1 (stereo unspecified) + CN(C)c1ccc(Nc2c3ccc(NC(=O)CCN4CCCC4)cc3nc3cc(NC(=O)CCN4CCCC4)ccc23)cc1	102
7. Nc1ccn(C2OC(CO)C(O)C2(F)F)c(=O)n1 (stereo unspecified) + Cc1cnc(CNC(=O)c2c(=O)c3ccc(N4CCCN(C)CC4)nc3n3c2sc2ccccc23)cn1	78.8
8. Cc1cccc(N(C)C(=O)C2C(O)CCN2c2nc(C)cc(C(F)(F)F)c2C#N)c1 (stereo unspecified) + Cc1[nH]c2ccc(F)cc2c1-c1nc2c3cccnc3c3ncccc3c2[nH]1	86.7
9. CC1COCCN1c1cc(C2(S(C)(=N)=O)CC2)nc(-c2ccnc3[nH]ccc23)n1 (stereo unspecified) + Cc1[nH]c2ccc(F)cc2c1-c1nc2c3cccnc3c3ncccc3c2[nH]1	67.6
10. COc1cc(C2c3cc4c(cc3C(OC3OC5COC(C)OC5C(O)C3O)C3COC(=O)C23)OCO4)cc(OC)c1O (stereo unspecified) + Cc1[nH]c2ccc(F)cc2c1-c1nc2c3cccnc3c3ncccc3c2[nH]1	72.3
11. C=CCn1c(=O)c2cnc(Nc3ccc(N4CCN(C)CC4)cc3)nc2n1-c1cccc(C(C)(C)O)n1 + Cc1cnc(CNC(=O)c2c(=O)c3ccc(N4CCCN(C)CC4)nc3n3c2sc2ccccc23)cn1	90

Provenance of the data: PubChem BioAssay AID2060502
